- System: CCRIS mutagenicity, Ames/micronucleus/aberration tests
- TEST PROTOCOL: CCRIS mutagenicity studies
- COND: Test System: MOUSE LYMPHOMA; Strain/Indicator: L5178Y (TK+/TK-); Metabolic Activation: NONE; Method: SUSPENSION/PLATE
The source made the active and inactive calls. No rule for the calls is given here.
Outcomes: active, inactive

INSERT INTO results (smi, label_value) VALUES
  ('N[C@@H](CS)C(=O)O', 'active'),
  ('N#CC(C#N)=C(C#N)C#N', 'inactive'),
  ('C=C[Si](C)(Cl)Cl', 'inactive'),
  ('Cc1cc(C)c(N=Nc2c(O)c(S(=O)(=O)O)cc3cc(S(=O)(=O)O)ccc23)cc1C', 'active'),
  ('CC(=O)c1ccccn1', 'active');
